# Tested on: HCC-15
# ASSAY EXPLANATION: relative viability (nuclei count vs DMSO), 5 days (fraction); higher = more cells survive
# APPLIED CONDITIONS: first compound 0.08 µM
MEASURED QUANTITY: relative viability
Respond using a number only.

Task: Lab request: please report relative viability under test system HCC-15 for Oc1nc(-c2ccc(C(F)(F)F)cc2)nc2c1CSCC2 [XAV939] + CCNC(=O)c1noc(-c2cc(C(C)C)c(O)cc2O)c1-c1ccc(CN2CCOCC2)cc1 [Luminespib] (partner 0.01 µM)
Output: 0.465

Task: Lab request: please report relative viability under test system HCC-15 for C=C1C(=O)O[C@@H](CCCCCCCC)[C@@H]1C(=O)O [C-75] + Nc1ncn([C@H]2C[C@H](O)[C@@H](CO)O2)c(=O)n1 [Decitabine] (partner 2 µM)
Output: 0.691

Task: Lab request: please report relative viability under test system HCC-15 for C=C1C(=O)O[C@@H](CCCCCCCC)[C@@H]1C(=O)O [C-75] + CC(=O)c1c(C)c2cnc(Nc3ccc(N4CCNCC4)cn3)nc2n(C2CCCC2)c1=O [Palbociclib] (partner 0.5 µM)
Output: 0.717

Task: Lab request: please report relative viability under test system HCC-15 for Oc1nc(-c2ccc(C(F)(F)F)cc2)nc2c1CSCC2 [XAV939] + O=C(CCCCCCC(=O)Nc1ccccc1)NO [Vorinostat] (partner 1 µM)
Output: 0.824

Task: Lab request: please report relative viability under test system HCC-15 for Oc1nc(-c2ccc(C(F)(F)F)cc2)nc2c1CSCC2 [XAV939] + CC(C)C[C@H](NC(=O)[C@H](Cc1ccccc1)NC(=O)c1cnccn1)B(O)O [Bortezomib] (partner 0.002 µM)
Output: 1.2

Task: Lab request: please report relative viability under test system HCC-15 for Oc1nc(-c2ccc(C(F)(F)F)cc2)nc2c1CSCC2 [XAV939] + Cc1nc(Nc2ncc(C(=O)Nc3c(C)cccc3Cl)s2)cc(N2CCN(CCO)CC2)n1 [Dasatinib] (partner 0.075 µM)
Output: 0.633

Task: Lab request: please report relative viability under test system HCC-15 for C=C1C(=O)O[C@@H](CCCCCCCC)[C@@H]1C(=O)O [C-75] + Cc1nc(Nc2ncc(C(=O)Nc3c(C)cccc3Cl)s2)cc(N2CCN(CCO)CC2)n1 [Dasatinib] (partner 0.075 µM)
Output: 0.644

Task: Lab request: please report relative viability under test system HCC-15 for C=C1C(=O)O[C@@H](CCCCCCCC)[C@@H]1C(=O)O [C-75] + CCNC(=O)c1noc(-c2cc(C(C)C)c(O)cc2O)c1-c1ccc(CN2CCOCC2)cc1 [Luminespib] (partner 0.01 µM)
Output: 0.303

Task: Lab request: please report relative viability under test system HCC-15 for C=C1C(=O)O[C@@H](CCCCCCCC)[C@@H]1C(=O)O [C-75] + Nc1nc2[nH]cc(CCc3ccc(C(=O)N[C@@H](CCC(=O)O)C(=O)O)cc3)c2c(=O)[nH]1 [Pemetrexed] (partner 0.2 µM)
Output: 0.246

Task: Lab request: please report relative viability under test system HCC-15 for Oc1nc(-c2ccc(C(F)(F)F)cc2)nc2c1CSCC2 [XAV939] + Cc1nc(NC(=O)N2CCC[C@H]2C(N)=O)sc1-c1ccnc(C(C)(C)C(F)(F)F)c1 [Alpelisib] (partner 2 µM)
Output: 1

Task: Lab request: please report relative viability under test system HCC-15 for Oc1nc(-c2ccc(C(F)(F)F)cc2)nc2c1CSCC2 [XAV939] + Nc1nc2[nH]cc(CCc3ccc(C(=O)N[C@@H](CCC(=O)O)C(=O)O)cc3)c2c(=O)[nH]1 [Pemetrexed] (partner 0.2 µM)
Output: 0.238

Task: Lab request: please report relative viability under test system HCC-15 for C=C1C(=O)O[C@@H](CCCCCCCC)[C@@H]1C(=O)O [C-75] + O=C(c1cc(Cc2n[nH]c(=O)c3ccccc23)ccc1F)N1CCN(C(=O)C2CC2)CC1 [Olaparib] (partner 8 µM)
Output: 0.686
